Entries and their measured pIC50 follow.
target: BuChE from equine serum (EqBuChE) (Equus caballus); construct: butyrylcholinesterase was from an equine serum; purchased Sigma-Aldrich (Prague, Czech Republic); host or cells: equine serum (natural source); test: Inhibition of BuChE, modified Ellman's spectrophotometric method; type: biochemical; conditions: mean ± SD, n = three experiments; read-out: IC50 (EqBuChE)
Convention used: pIC50 is expressed as -log10 of the molar concentration.

Record excerpt, results attached:
> print(dat)
                                   compound  obs.value
1  O=C1c2ccc(Cl)cc2OP(=S)(c2ccccc2)N1c1ccc(C(F)(F)F)cc1 (racemic)       3.77
2       O=C(Nc1ccc(Cl)c(Cl)c1)c1cc(Br)ccc1O       3.91
3       O=C(Nc1cc(Cl)cc(Cl)c1)c1cc(Br)ccc1O       3.87
4   O=C(Nc1cc(Cl)c(Cl)c(Cl)c1)c1ccc(Cl)cc1O       3.88
5  O=C(Nc1cc(C(F)(F)F)cc(C(F)(F)F)c1)c1ccc(Cl)cc1O       3.82
6  O=C(Nc1ccccc1)c1ccccc1O [Compound 1, salicylanilide]       3.69
7  O=C(Nc1cc(C(F)(F)F)cc(C(F)(F)F)c1)c1cc(Cl)ccc1O       4.19
8   O=C(Nc1cc(Cl)c(Cl)c(Cl)c1)c1cc(Cl)ccc1O       3.99

For O=C(Nc1cc(Cl)cc(Cl)c1)c1cc(Cl)ccc1O , what is its reported pIC50? 3.95

For O=C(Nc1ccc(Br)cc1)c1cc(Cl)ccc1O , what is its reported pIC50? 3.93

For O=C(Nc1cc(Cl)cc(Cl)c1)c1ccc(Cl)cc1O , what is its reported pIC50? 3.85

For O=C(Nc1ccc(Br)cc1)c1cc(Br)ccc1O , what is its reported pIC50? 3.95

For O=C(Nc1cc(Cl)c(Cl)c(Cl)c1)c1cc(Br)ccc1O , what is its reported pIC50? 3.85

----------
Entries and their measured Selectivity AChE/BuChE follow.
target: AChE from electric eel (EeAChE) (Electrophorus electricus); construct: Acetylcholinesterase was obtained from electric eel (Electrophorus electricus L.); purchased Sigma-Aldrich (Prague, Czech Republic); host or cells: electric eel (natural source); assay: Inhibition of AChE, modified Ellman's spectrophotometric method; type: biochemical, electric eel (Electrophorus electricus L.); conditions: SI = IC50 for AChE/IC50 for BuChE; SI lower than 1 means selectivity for AChE
Sequence (O42275 24-633): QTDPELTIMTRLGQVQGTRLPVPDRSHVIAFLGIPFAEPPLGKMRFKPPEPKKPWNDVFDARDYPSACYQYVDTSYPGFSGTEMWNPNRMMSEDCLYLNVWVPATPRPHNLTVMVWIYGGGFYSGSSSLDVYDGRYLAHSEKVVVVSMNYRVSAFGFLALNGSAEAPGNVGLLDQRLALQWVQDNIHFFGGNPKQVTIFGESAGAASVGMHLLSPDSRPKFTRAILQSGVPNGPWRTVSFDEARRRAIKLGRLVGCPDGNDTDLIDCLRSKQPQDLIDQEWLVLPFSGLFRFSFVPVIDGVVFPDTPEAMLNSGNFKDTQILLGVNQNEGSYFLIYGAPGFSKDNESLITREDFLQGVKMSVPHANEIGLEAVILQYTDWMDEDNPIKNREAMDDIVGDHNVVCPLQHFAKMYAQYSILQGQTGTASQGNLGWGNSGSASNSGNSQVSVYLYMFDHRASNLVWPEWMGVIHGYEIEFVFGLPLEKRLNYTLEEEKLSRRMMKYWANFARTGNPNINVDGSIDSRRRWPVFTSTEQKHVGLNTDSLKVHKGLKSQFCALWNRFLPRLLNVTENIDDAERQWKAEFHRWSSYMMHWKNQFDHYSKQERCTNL
Reply: number alone, nothing else.

> print(dat)
                                   compound  obs.value
1  O=C(Nc1cc(C(F)(F)F)cc(C(F)(F)F)c1)c1cc(Br)ccc1O       0.91
2           O=C(Nc1cccc(Cl)c1)c1cc(Cl)ccc1O       0.26
3            O=C(Nc1cccc(F)c1)c1cc(Br)ccc1O       0.46
4  CCOP(OCC)Oc1cc(Cl)ccc1C(=O)Nc1ccc(C(F)(F)F)cc1      28.00
5            O=C(Nc1cccc(F)c1)c1cc(Cl)ccc1O       0.38

Find the measured Selectivity AChE/BuChE: item O=C(Nc1cccc(C(F)(F)F)c1)c1cc(Br)ccc1O , target or system AChE from electric eel (EeAChE) (Electrophorus electricus). 0.36

Find the measured Selectivity AChE/BuChE: item O=C(Nc1ccc(Cl)c(Cl)c1)c1cc(Cl)ccc1O , target or system AChE from electric eel (EeAChE) (Electrophorus electricus). 0.33

Find the measured Selectivity AChE/BuChE: item O=C(Nc1cc(Cl)cc(Cl)c1)c1ccc(Cl)cc1O , target or system AChE from electric eel (EeAChE) (Electrophorus electricus). 0.36

----------
target: BuChE from equine serum (EqBuChE) (Equus caballus, UniProt P81908); construct: butyrylcholinesterase was from an equine serum; purchased Sigma-Aldrich (Prague, Czech Republic); host or cells: equine serum (natural source); assay: Inhibition of BuChE, modified Ellman's spectrophotometric method; assay type: biochemical; conditions: IC50 (EqBuChE), mean ± SD, n = three experiments
Sequence (P81908 whole entry): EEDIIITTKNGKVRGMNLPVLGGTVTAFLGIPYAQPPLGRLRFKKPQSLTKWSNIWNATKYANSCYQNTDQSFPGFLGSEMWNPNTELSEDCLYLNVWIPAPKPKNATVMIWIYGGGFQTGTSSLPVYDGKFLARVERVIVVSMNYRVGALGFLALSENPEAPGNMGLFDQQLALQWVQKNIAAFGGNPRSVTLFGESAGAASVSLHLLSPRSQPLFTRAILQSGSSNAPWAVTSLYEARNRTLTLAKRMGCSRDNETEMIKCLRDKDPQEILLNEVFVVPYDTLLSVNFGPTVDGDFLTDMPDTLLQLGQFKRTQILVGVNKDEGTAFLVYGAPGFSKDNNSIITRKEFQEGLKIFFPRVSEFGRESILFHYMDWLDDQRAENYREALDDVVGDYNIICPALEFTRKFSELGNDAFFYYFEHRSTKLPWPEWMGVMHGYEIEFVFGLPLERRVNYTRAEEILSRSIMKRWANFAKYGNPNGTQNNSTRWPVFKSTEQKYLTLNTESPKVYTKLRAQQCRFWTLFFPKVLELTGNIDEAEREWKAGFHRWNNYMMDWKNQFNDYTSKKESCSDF
experimental endpoint: pIC50
Convention used: pIC50 is expressed as -log10 of the molar concentration.

> print(dat)
                       chem.smiles  experimental.endpoint  obs.value
1  O=C(Nc1cccc(Cl)c1)c1cc(Br)ccc1O                  pIC50       3.87
2  O=C(Nc1cccc(Br)c1)c1cc(Br)ccc1O                  pIC50       3.84
3   O=C(Nc1cccc(F)c1)c1cc(Cl)ccc1O                  pIC50       3.81
4  O=C(Nc1ccc(Cl)cc1)c1cc(Cl)ccc1O                  pIC50       3.77

For O=C(Nc1ccc(Cl)cc1)c1ccc(Cl)cc1O , what is its reported pIC50? 3.82

----------
biological target: AChE from electric eel (EeAChE) (Electrophorus electricus); construct: Acetylcholinesterase was obtained from electric eel (Electrophorus electricus L.); purchased Sigma-Aldrich (Prague, Czech Republic); host or cells: electric eel (natural source); experiment: Inhibition of AChE, modified Ellman's spectrophotometric method; assay type: biochemical, electric eel (Electrophorus electricus L.); settings: SI = IC50 for AChE/IC50 for BuChE; SI lower than 1 means selectivity for AChE
experimental endpoint: Selectivity AChE/BuChE
Reply: number alone, nothing else.

For O=C(Nc1cccc(Br)c1)c1cc(Cl)ccc1O , what is its reported Selectivity AChE/BuChE? 0.35

For O=C(Nc1cc(Cl)cc(Cl)c1)c1cc(Br)ccc1O , what is its reported Selectivity AChE/BuChE? 0.24

For O=C(Nc1cc(Cl)cc(Cl)c1)c1cc(Cl)ccc1O , what is its reported Selectivity AChE/BuChE? 0.41

For O=C(Nc1ccc(Br)cc1)c1cc(Cl)ccc1O , what is its reported Selectivity AChE/BuChE? 0.49

For O=C(Nc1ccccc1)c1ccccc1O [Compound 1, salicylanilide] , what is its reported Selectivity AChE/BuChE? 0.24

For O=C(Nc1ccc(Cl)c(Cl)c1)c1cc(Br)ccc1O , what is its reported Selectivity AChE/BuChE? 0.50

For O=C(Nc1cccc(Br)c1)c1cc(Br)ccc1O , what is its reported Selectivity AChE/BuChE? 0.48

For O=C(Nc1ccc(C(F)(F)F)cc1)c1ccc(Cl)cc1O , what is its reported Selectivity AChE/BuChE? 0.30
